Data credit: patent US20070270408A1

biological target: h-11βHSD1 (Homo sapiens, UniProt P28845); construct: made in house; assay: 11βHSD1 enzyme assay (SPA); format: biochemical; conditions: yeast extract with h-11βHSD1, 120 nM 3H-cortisone, 4 mM β-NADPH, 60 min at 30° C.
Sequence (P28845 whole entry): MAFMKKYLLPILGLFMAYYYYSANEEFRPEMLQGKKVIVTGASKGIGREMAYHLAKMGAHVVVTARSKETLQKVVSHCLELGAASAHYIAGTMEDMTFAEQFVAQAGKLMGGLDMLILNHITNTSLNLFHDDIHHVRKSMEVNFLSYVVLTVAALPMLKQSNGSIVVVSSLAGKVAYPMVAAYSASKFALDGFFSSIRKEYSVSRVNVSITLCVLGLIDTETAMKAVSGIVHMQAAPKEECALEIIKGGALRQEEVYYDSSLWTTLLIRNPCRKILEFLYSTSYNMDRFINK
ASSAY READOUT: IC50 (µM)

COMPOUND	ASSAY READOUT	VALUE UNITS	READOUT NUMBER
Cc1cc(C(F)(F)F)n2nc(C(=O)N3CCCCC3)cc2n1 [Example 3]	IC50	µM	4.7
